# assay info: Toxicity liver stage against HepG2, at 10uM
# Format: cell-based
# Set-up: test concentration 10 uM, cell line HepG2-A16-CD81EGFP
# condition set: human, HepG2-A16-CD81EGFP cells; read-out: INHIBITION
Consider the following molecules and their measured cytotoxicity at 10 µM readings.
All answers are understood in %, so give the number only.

Answered examples (5):
QUERY: Input Cc1csc(CNC(=O)NC2CCCN(S(C)(=O)=O)C2)n1 (stereo not drawn) , output reported cytotoxicity at 10 µM.
RESULT: -6.3

QUERY: Input COc1cccc(CN2CCCC2c2ccc[nH]2)c1 (stereo not drawn) , output reported cytotoxicity at 10 µM.
RESULT: -1.38

QUERY: Input COCCCn1ccnc1-c1cnc(OC)nc1 , output reported cytotoxicity at 10 µM.
RESULT: -13.6

QUERY: Input CN(C)CC1CN(Cc2nnc(-c3ccccc3Cl)o2)CCO1 (stereo not drawn) , output reported cytotoxicity at 10 µM.
RESULT: 1.56

QUERY: Input Cc1ccc(CN2CCN(C(=O)c3ccc(Br)o3)CC2)cc1 , output reported cytotoxicity at 10 µM.
RESULT: 1.16

Further cases:
QUERY: Input COc1ccc(N)c(N2CCN(C(C)=O)CC2)n1 , output reported cytotoxicity at 10 µM.
RESULT: -6.22

QUERY: Input CC(C)c1ccccc1NC(=O)N1C[C@H]2CC[C@@H](C1)N(C)C2=O , output reported cytotoxicity at 10 µM.
RESULT: -3

QUERY: Input NC(=O)c1csc(N2CCCC(c3n[nH]c(=O)n3-c3ccccc3)C2)n1 (stereo not drawn) , output reported cytotoxicity at 10 µM.
RESULT: 8.84

QUERY: Input CCCc1nc(CNC(C)Cn2cccn2)cs1 (stereo not drawn) , output reported cytotoxicity at 10 µM.
RESULT: -12.5

QUERY: Input Cc1cnc(NC(=O)c2ccc(-n3ncc(C#N)c3N)cc2)s1 , output reported cytotoxicity at 10 µM.
RESULT: 5.88

QUERY: Input CCN(CC)C(=O)Cn1cc(C(=O)NCCc2nc(C)c(C)s2)nn1 , output reported cytotoxicity at 10 µM.
RESULT: 2.22

QUERY: Input Fc1cnc(N2CCCC3(CCN(Cc4ccco4)C3)C2)nc1 (stereo not drawn) , output reported cytotoxicity at 10 µM.
RESULT: -84.9

QUERY: Input CS(=O)(=O)CCNC1CCCN(Cc2noc(C3CC3)n2)C1 (stereo not drawn) , output reported cytotoxicity at 10 µM.
RESULT: -1.38

QUERY: Input CC(=O)NC1CC(C)(C)Cc2c1cnn2-c1cccc(F)c1 (stereo not drawn) , output reported cytotoxicity at 10 µM.
RESULT: -144

QUERY: Input c1ccc(COC[C@H]2CC[C@H]3[C@H](CCN3Cc3ccco3)O2)nc1 , output reported cytotoxicity at 10 µM.
RESULT: -144

Numbers sourced from ChEMBL document CHEMBL4513216.
